# assayed_system: HSP27 (Homo sapiens)
# Sequence (P04792 whole entry): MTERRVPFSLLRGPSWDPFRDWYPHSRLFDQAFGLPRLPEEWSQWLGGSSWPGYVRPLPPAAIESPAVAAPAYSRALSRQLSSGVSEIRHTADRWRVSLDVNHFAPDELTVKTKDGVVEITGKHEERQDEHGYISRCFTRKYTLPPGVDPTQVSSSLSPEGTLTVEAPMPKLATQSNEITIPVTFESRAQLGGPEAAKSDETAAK
# protocol_text: Capillary electrophoresis of heat-denatured citrate synthase protein precipitates
# Assay type: biochemical
# applied_conditions: 10 μmol/L, 43° C. for 70 minutes; relative to 750 μmol/L BVDU = 1 (Table 3)
endpoint: Rel. quantity of protein prec. CS
# print the numeric value only

Here is how some compounds turned out for Rel. quantity of protein prec. CS.
compound	Rel. quantity of protein prec. CS
CCCc1cn([C@H]2C[C@H](n3cc(C)c(=O)[nH]c3=O)O[C@@H]2CO)nn1	0.79
O=C(Cc1ccc(-c2ccccc2)cc1)NC/C=C\Cn1ccc(=O)[nH]c1=O	0.88

Prompt: Entry `Cc1cn(C/C=C\CNC(=O)c2cccc3ccccc23)c(=O)[nH]c1=O` has what Rel. quantity of protein prec. CS?
Response: 0.78

Prompt: What do we get for O=C(NC/C=C\Cn1ccc(=O)[nH]c1=O)C1c2ccccc2OC2C=CC=CC21 (centres unmarked) ?
Response: 0.85

Prompt: Let us now turn to `Cc1cn([C@H]2C[C@H](n3cc(C(C)(C)C)nn3)[C@@H](CO)O2)c(=O)[nH]c1=O`
Response: 0.61

Prompt: Let us now turn to `Cc1cn(CCCCNC(=O)Cc2ccc(-c3ccccc3)cc2)c(=O)[nH]c1=O`
Response: 0.67

Prompt: Next entry: `O=C(Cc1ccc2ccccc2c1)NC/C=C\Cn1ccc(=O)[nH]c1=O`
Response: 1.15

Prompt: # repeat for `CCCCCc1cn([C@H]2C[C@H](n3cc(C)c(=O)[nH]c3=O)O[C@@H]2CO)nn1`
Response: 0.70

Prompt: What do we get for `Cc1cn(C/C=C\CNC(=O)Cc2ccc3ccccc3c2)c(=O)[nH]c1=O` ?
Response: 0.83

Prompt: Same again, this time with `Cc1cn([C@H]2C[C@H](n3cc(CC4CCCC4)nn3)[C@@H](CO)O2)c(=O)[nH]c1=O`
Response: 0.66
